Organism: Homo sapiens
method summary: Selectivity ratio of IC50 for inhibition of human PRMT5 co-complexed with MEP50 in absence of MTA to IC50 for inhibition of MTA-bound human PRMT5 co-complexed with MEP50

>  <chem smiles>
NCc1n[nH]c(=O)c2ccc(-c3ccccc3)cc12

>  <Ratio IC50>
3

$$$$
>  <chem smiles>
CCn1cc(-c2ccc3c(=O)[nH]nc(CN)c3c2)cn1

>  <Ratio IC50>
21

$$$$
>  <chem smiles>
NCc1n[nH]c(=O)c2ccc(-c3cnsc3)cc12

>  <Ratio IC50>
16

$$$$
>  <chem smiles>
Cc1c(-c2ccc3c(=O)[nH]nc(CN)c3c2)cnn1C

>  <Ratio IC50>
26

$$$$
>  <chem smiles>
NCc1n[nH]c(=O)c2ccc(-c3cccnc3)cc12

>  <Ratio IC50>
21

$$$$
>  <chem smiles>
Cc1ccc(-c2ccc3c(=O)[nH]nc(CN)c3c2)cn1

>  <Ratio IC50>
12

$$$$
>  <chem smiles>
CC(C)n1cc(-c2ccc3c(=O)[nH]nc(CN)c3c2)cn1

>  <Ratio IC50>
17

$$$$
>  <chem smiles>
CCCn1cc(-c2ccc3c(=O)[nH]nc(CN)c3c2)cn1

>  <Ratio IC50>
24

$$$$
>  <chem smiles>
NCc1n[nH]c(=O)c2ccc(-c3cnn(CCO)c3)cc12

>  <Ratio IC50>
16

$$$$

---

Measured pKd, listed per entry.
system name: PRMT5/MEP50 complex (Homo sapiens, UniProt O14744)
Sequence (O14744 whole entry): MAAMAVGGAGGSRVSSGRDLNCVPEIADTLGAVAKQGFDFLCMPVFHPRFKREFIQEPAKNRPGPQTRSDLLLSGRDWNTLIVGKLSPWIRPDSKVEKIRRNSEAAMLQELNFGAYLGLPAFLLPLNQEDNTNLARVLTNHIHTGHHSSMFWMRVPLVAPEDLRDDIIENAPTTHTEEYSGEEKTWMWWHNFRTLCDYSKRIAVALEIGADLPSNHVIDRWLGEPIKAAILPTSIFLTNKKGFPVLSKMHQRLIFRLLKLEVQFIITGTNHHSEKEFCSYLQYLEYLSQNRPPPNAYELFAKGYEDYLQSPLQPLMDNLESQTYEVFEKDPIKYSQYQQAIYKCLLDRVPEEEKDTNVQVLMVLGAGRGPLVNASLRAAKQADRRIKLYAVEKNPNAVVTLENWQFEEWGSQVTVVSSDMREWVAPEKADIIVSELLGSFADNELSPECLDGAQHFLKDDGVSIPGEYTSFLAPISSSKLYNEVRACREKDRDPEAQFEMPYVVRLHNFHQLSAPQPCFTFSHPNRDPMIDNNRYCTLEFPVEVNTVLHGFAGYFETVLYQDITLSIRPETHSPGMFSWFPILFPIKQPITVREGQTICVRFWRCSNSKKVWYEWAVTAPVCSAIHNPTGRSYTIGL
Sequence (Q9BQA1 whole entry, further chain): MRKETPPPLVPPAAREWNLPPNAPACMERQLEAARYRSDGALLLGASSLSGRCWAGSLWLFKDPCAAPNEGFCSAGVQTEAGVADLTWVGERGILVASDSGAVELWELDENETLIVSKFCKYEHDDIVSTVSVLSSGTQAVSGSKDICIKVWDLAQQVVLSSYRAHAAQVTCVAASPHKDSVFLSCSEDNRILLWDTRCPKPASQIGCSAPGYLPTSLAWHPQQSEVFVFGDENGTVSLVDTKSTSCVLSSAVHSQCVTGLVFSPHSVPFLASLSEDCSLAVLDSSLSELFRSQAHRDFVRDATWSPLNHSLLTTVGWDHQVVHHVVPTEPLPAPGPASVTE
method summary: Inhibition of streptavidin sensor chip immobilized biotinylated human PRMT5/MEP50 assessed as dissociation constant by SPR analysis
pKd: −log10 of the molar value.

>  <chem smiles>
CSC[C@H]1O[C@@H](n2cnc3c(N)ncnc32)[C@H](O)[C@@H]1O

>  <pKd>
6.18

$$$$
>  <chem smiles>
C[S@@+](CC[C@H](N)C(=O)[O-])C[C@H]1O[C@@H](n2cnc3c(N)ncnc32)[C@H](O)[C@@H]1O

>  <pKd>
6.26

$$$$

---

method summary: Intrinsic clearance in human hepatocytes
Assay type: ADME, cell-based, Hepatocyte
condition description: read-out: CLH
measurement kind: CLint scaled

>  <chem smiles>
Cn1ncc(-c2ccc3c(=O)[nH]nc(CN)c3c2)c1-c1ccccc1

>  <experimental value>
23 mL/min/kg

$$$$
>  <chem smiles>
Cn1ncc(-c2ccc3c(=O)[nH]nc(CN)c3c2)c1-c1c(F)cccc1C#N

>  <experimental value>
18 mL/min/kg

$$$$
>  <chem smiles>
Cn1ncc(-c2ccc3c(=O)[nH]nc(CN)c3c2)c1-c1cccc(Cl)c1C#N

>  <experimental value>
< 18 mL/min/kg

$$$$
>  <chem smiles>
Cn1ncc(-c2ccc3c(=O)[nH]nc(CN)c3c2)c1-c1cc(Cl)cc(OC2CC2)c1C#N

>  <experimental value>
< 18 mL/min/kg

$$$$
>  <chem smiles>
Cc1cc(OC2CC2)c(C#N)c(-c2c(-c3ccc4c(=O)[nH]nc(CN)c4c3)cnn2C)c1

>  <experimental value>
21 mL/min/kg

$$$$
>  <chem smiles>
Cn1ncc(-c2ccc3c(=O)[nH]nc(CN)c3c2)c1-c1cc2ccccc2cc1C#N

>  <experimental value>
< 18 mL/min/kg

$$$$
>  <chem smiles>
Cc1cccc(-c2c(-c3ccc4c(=O)[nH]nc(CN)c4c3)cnn2C)c1C#N

>  <experimental value>
29 mL/min/kg

$$$$
>  <chem smiles>
Cn1ncc(-c2ccc3c(=O)[nH]nc(CN)c3c2)c1-c1c(Cl)ccc(OC2CC2)c1C#N

>  <experimental value>
< 18 mL/min/kg

$$$$
>  <chem smiles>
Cn1ncc(-c2ccc3c(=O)[nH]nc(CN)c3c2)c1-c1c(F)c(Cl)cc(OC2CC2)c1C#N

>  <experimental value>
< 18 mL/min/kg

$$$$
>  <chem smiles>
CCc1cccc(-c2c(-c3ccc4c(=O)[nH]nc(CN)c4c3)cnn2C)c1C#N

>  <experimental value>
18 mL/min/kg

$$$$
>  <chem smiles>
Cn1ncc(-c2ccc3c(=O)[nH]nc(CN)c3c2)c1-c1cccc(OC2CC2)c1C#N

>  <experimental value>
< 18 mL/min/kg

$$$$
>  <chem smiles>
COc1cccc(-c2c(-c3ccc4c(=O)[nH]nc(CN)c4c3)cnn2C)c1C#N

>  <experimental value>
< 18 mL/min/kg

$$$$

---

Entries annotated with measured IC50
system name: Protein arginine N-methyltransferase 5 (Homo sapiens, UniProt O14744)

>  <chem smiles>
CCn1cc(-c2ccc3c(=O)[nH]nc(CN)c3c2)cn1

>  <u>
µM

>  <modifier sign>
=

>  <IC50>
10.6

$$$$
>  <chem smiles>
Cc1ccc(-c2ccc3c(=O)[nH]nc(CN)c3c2)cn1

>  <u>
µM

>  <modifier sign>
=

>  <IC50>
69

$$$$
>  <chem smiles>
NCc1nnc(O)c2ccc(-c3ccccc3)cc12

>  <u>
µM

>  <modifier sign>
=

>  <IC50>
14.5

$$$$
>  <chem smiles>
NCc1n[nH]c(=O)c2ccc(-c3cnsc3)cc12

>  <u>
µM

>  <modifier sign>
=

>  <IC50>
11.6

$$$$
>  <chem smiles>
NCc1n[nH]c(=O)c2ccc(-c3cnn(CCO)c3)cc12

>  <u>
µM

>  <modifier sign>
=

>  <IC50>
11.2

$$$$
>  <chem smiles>
NCc1n[nH]c(=O)c2ccc(-c3ccccn3)cc12

>  <u>
µM

>  <modifier sign>
>

>  <IC50>
100

$$$$
>  <chem smiles>
Cc1c(-c2ccc3c(=O)[nH]nc(CN)c3c2)cnn1C

>  <u>
µM

>  <modifier sign>
=

>  <IC50>
1.29

$$$$
>  <chem smiles>
CCCn1cc(-c2ccc3c(=O)[nH]nc(CN)c3c2)cn1

>  <u>
µM

>  <modifier sign>
=

>  <IC50>
7.65

$$$$
>  <chem smiles>
NCc1n[nH]c(=O)c2ccc(-c3cccnn3)cc12

>  <u>
µM

>  <modifier sign>
>

>  <IC50>
100

$$$$
>  <chem smiles>
CC(C)n1cc(-c2ccc3c(=O)[nH]nc(CN)c3c2)cn1

>  <u>
µM

>  <modifier sign>
=

>  <IC50>
11.4

$$$$
>  <chem smiles>
NCc1n[nH]c(=O)c2ccc(-c3cccnc3)cc12

>  <u>
µM

>  <modifier sign>
=

>  <IC50>
19

$$$$

---

method summary: Oral bioavailability in beagle dog at 10 mg/kg administered via gavage measured upto 24 hrs by LC-MS/MS analysis
Format: ADME, organism-based, Canis lupus familiaris
condition description: in vivo
measurement kind: bioavailability (%)

>  <chem smiles>
Cn1ncc(-c2ccc3c(=O)[nH]nc(CN)c3c2)c1-c1c(F)c(Cl)cc(OC2CC2)c1C#N

>  <measurement kind>
bioavailability

>  <u>
%

>  <experimental value>
59

$$$$
>  <chem smiles>
Cn1ncc(-c2ccc3c(=O)[nH]nc(CN)c3c2)c1-c1c(F)cc2ccccc2c1C#N

>  <measurement kind>
bioavailability

>  <u>
%

>  <experimental value>
60

$$$$

---

// reported clearance per item
method summary: Total clearance in cynomolgus monkey at 2 mg/kg, iv measured upto 24 hrs by LC-MS/MS analysis
Type: ADME, organism-based, Macaca fascicularis
condition description: in vivo

>  <chem smiles>
Cn1ncc(-c2ccc3c(=O)[nH]nc(CN)c3c2)c1-c1c(F)c(Cl)cc(OC2CC2)c1C#N

>  <clearance / mL/min/kg>
15

$$$$
>  <chem smiles>
Cn1ncc(-c2ccc3c(=O)[nH]nc(CN)c3c2)c1-c1c(F)cc2ccccc2c1C#N

>  <clearance / mL/min/kg>
24

$$$$

---

method summary: Apparent permeability across apical to basolateral side in dog MDCKII-MDR1 cells at 2 uM incubated for 2.5 hrs by LC-MS/MS analysis
Type: ADME, cell-based, Canis lupus familiaris, MDCK-MDR1
condition description: MDCK-MDR1
// assign 1 (yes) if Papp A→B at 2.5 h, 2 µM falls strictly below 2 ×10⁻⁶ cm/s, else 0 (no) (ties count as 0 (no))

>  <chem smiles>
NCc1n[nH]c(=O)c2ccc(-c3cnn(CCO)c3)cc12

>  <class name>
1 (yes)

$$$$
>  <chem smiles>
NCc1nnc(O)c2ccc(-c3ccccc3)cc12

>  <class name>
0 (no)

$$$$
>  <chem smiles>
Cn1ncc(-c2ccc3c(=O)[nH]nc(CN)c3c2)c1-c1ccc2ccccc2c1C#N

>  <class name>
1 (yes)

$$$$
>  <chem smiles>
NCc1n[nH]c(=O)c2ccc(-c3cncs3)cc12

>  <class name>
0 (no)

$$$$
>  <chem smiles>
Cn1ncc(-c2ccc3c(=O)[nH]nc(CN)c3c2)c1-c1cccc(Cl)c1C#N

>  <class name>
1 (yes)

$$$$
>  <chem smiles>
Cn1cc(-c2ccc3c(=O)[nH]nc(CN)c3c2)cn1

>  <class name>
0 (no)

$$$$
>  <chem smiles>
Cn1ncc(-c2ccc3c(=O)[nH]nc(CN)c3c2)c1-c1cc(Cl)cc(OC2CC2)c1C#N

>  <class name>
1 (yes)

$$$$
>  <chem smiles>
Cn1ncc(-c2ccc3c(=O)[nH]nc(CN)c3c2)c1-c1c(F)c(Cl)cc(OC2CC2)c1C#N

>  <class name>
1 (yes)

$$$$
>  <chem smiles>
Cn1ncc(-c2ccc3c(=O)[nH]nc(CN)c3c2)c1-c1ccccc1C#N

>  <class name>
1 (yes)

$$$$
>  <chem smiles>
NCc1n[nH]c(=O)c2ccc(-c3cnsc3)cc12

>  <class name>
0 (no)

$$$$
>  <chem smiles>
Cn1ncc(-c2ccc3c(=O)[nH]nc(CN)c3c2)c1-c1c(F)cccc1C#N

>  <class name>
1 (yes)

$$$$
>  <chem smiles>
Cn1ncc(-c2ccc3c(=O)[nH]nc(CN)c3c2)c1-c1ccccc1

>  <class name>
1 (yes)

$$$$
>  <chem smiles>
Cn1ncc(-c2ccc3c(=O)[nH]nc(CN)c3c2)c1-c1sc2ccccc2c1C#N

>  <class name>
1 (yes)

$$$$
>  <chem smiles>
Cc1c(-c2ccc3c(=O)[nH]nc(CN)c3c2)cnn1C

>  <class name>
0 (no)

$$$$
>  <chem smiles>
Cc1cccc(-c2c(-c3ccc4c(=O)[nH]nc(CN)c4c3)cnn2C)c1C#N

>  <class name>
1 (yes)

$$$$
>  <chem smiles>
Cn1ncc(-c2ccc3c(=O)[nH]nc(CN)c3c2)c1-c1cc2ccccc2cc1C#N

>  <class name>
1 (yes)

$$$$
>  <chem smiles>
CC(C)n1cc(-c2ccc3c(=O)[nH]nc(CN)c3c2)cn1

>  <class name>
1 (yes)

$$$$
>  <chem smiles>
NCc1n[nH]c(=O)c2ccc(-c3cccnc3)cc12

>  <class name>
0 (no)

$$$$
>  <chem smiles>
NCc1n[nH]c(=O)c2ccc(-c3ccccn3)cc12

>  <class name>
0 (no)

$$$$
>  <chem smiles>
Cn1ncc(-c2ccc3c(=O)[nH]nc(CN)c3c2)c1-c1c(F)cc2ccccc2c1C#N

>  <class name>
1 (yes)

$$$$
>  <chem smiles>
COc1cccc(-c2c(-c3ccc4c(=O)[nH]nc(CN)c4c3)cnn2C)c1C#N

>  <class name>
1 (yes)

$$$$
>  <chem smiles>
Cc1ccc(-c2ccc3c(=O)[nH]nc(CN)c3c2)cn1

>  <class name>
0 (no)

$$$$
>  <chem smiles>
Cn1ncc(-c2ccc3c(=O)[nH]nc(CN)c3c2)c1-c1c(F)ccc(OC2CC2)c1C#N

>  <class name>
1 (yes)

$$$$
>  <chem smiles>
CCCn1cc(-c2ccc3c(=O)[nH]nc(CN)c3c2)cn1

>  <class name>
0 (no)

$$$$
>  <chem smiles>
Cc1cc(OC2CC2)c(C#N)c(-c2c(-c3ccc4c(=O)[nH]nc(CN)c4c3)cnn2C)c1

>  <class name>
1 (yes)

$$$$
>  <chem smiles>
Cn1ncc(-c2ccc3c(=O)[nH]nc(CN)c3c2)c1-c1cccc(OC2CC2)c1C#N

>  <class name>
1 (yes)

$$$$
>  <chem smiles>
CCc1cccc(-c2c(-c3ccc4c(=O)[nH]nc(CN)c4c3)cnn2C)c1C#N

>  <class name>
1 (yes)

$$$$
>  <chem smiles>
NCc1n[nH]c(=O)c2ccc(-c3cccnn3)cc12

>  <class name>
1 (yes)

$$$$
